Reported folding stability dG unfold by item:
assay: folding stability dG unfold from trypsin proteolysis; higher = more stable
outcome measure: folding stability dG unfold (kcal/mol)

>>> print(df.to_string())
                         biopolymer_sequence  unit_of_measurement  reported_measurement
 0  SNPWQIKFRNPNRPVEIPIQMNPDDGYVGISVRMRKPGKPKTHTITYKVKNIEDLLDHLEDLPPGFEIEPSA [r9_713_TrROS]             kcal/mol                 0.435
 1  SAGGSAGGSAGGNVITVFIPNYQIITIHLSPEPGRIPIEVYPPNGKKEEWPIPDIKELIQSAGGSAGGSAGG [r7_769_TrROS]             kcal/mol                   1.6
 2  SAEMTEEERARRLAEKLREELEELGVEKVEIEFDEEERRVTVRVTLSPEVREKLAERLGLSREELDALLSAG [r14_688_TrROS_Hall]             kcal/mol                   4.1
 3  SAGGSAGGSAGSKKKRVITIWIPPNQSIEEAKNFMDEGFPIKEIDVQTRPDGHMMVTITLSAGGSAGGSAGG [r11_97_TrROS]             kcal/mol                  1.56
 4  SAGPGAELVAEFEVELGDRGARIRIYRAPDFLIIRVDYPDGTVPVFRIDPRTGRIVEVRTFRVRPDLPLSAG [r14_676_TrMRF]             kcal/mol                  2.56
 5  SAGGSAGGSAGNKPVTVRFTIKIPLPNGKKLEIPVEVTYDSPEDRDRAEKEAEEIAREFLSAGGSAGGSAGG [r17_510_TrROS]             kcal/mol                   1.5
 6  SAGPLTVTVEGDTLTVTVPLTDVPADATVRVTVTVGDKTEEYTVPPSESITVTVPSSAVEVTVERLPPASAG [r5_867_JUSTAS]             kcal/mol                  2.09
 7  SASSSMSSSSTSRTVPTPEGPVSITITFYPSTGKYTATITDPATSTATTVPSPGSSVEEAIAEAIALLASAG [r14_65_JUSTAS]             kcal/mol                  1.94
 8  SAGGSAGGSAGSPMSAEEVEERLREELRRELGPDYTVTVTVTEVLPEGVYVVSVTVTGPASAGGSAGGSAGG [r11_153_JUSTAS]             kcal/mol                  2.49
 9  SAGGSAGGSAGMKVTIEENEETGKFTIKVKTEDGEEKTIEIPKENLEEILAKLPPNVEIISAGGSAGGSAGG [r11_569_TrROS_Hall]             kcal/mol                  2.52
10  SAGGSAGGSAGGGSMESVVLNVPIYEKTPDGSWRLVKELPILVPVDASPEVVEKKRKELSAGGSAGGSAGGS [r10_470_JUSTAS]             kcal/mol                 -0.41
11  SAGGSAGGSAGGMALIKLPNGEVQPVKIKAIDPDGNILVEPENSEWQTFSFDGLEIIPLPSAGGSAGGSAGG [r7_823_TrMRF]             kcal/mol                 0.647
12  SAGKKVKINIKLPEGAKVTKIEFDKKTKTIKITIYDKNGKKVLEMTFVYKDKNGKYKIVKKITVYLKKPSAG [r5_434_TrROS_Hall]             kcal/mol                  2.97
13  SAGIEEEVRKLFPDRELEVKVKEKRLKAPNGVPVTLYEVTVTFPDGSRYKLTLTKTPNSVTLSVTPLDASAG [r14_28_JUSTAS]             kcal/mol                  2.73
14  SAGGSAGGSVKPGQEIEVRVELTYDEETGELTIRREVVNKETGELIAEEEITISLEDLPPELLSAGGSAGGS [r12_145_TrROS_Hall]             kcal/mol                  1.83
15  SAGGSAGGSAGYKPGEVVYIEVEDPETGKSLKVPVKVPENMTPEQAKKLAEEAAKKYREGSAGGSAGGSAGG [r11_355_TrMRF]             kcal/mol                  1.57
16  SAGGSAGGSAETFTLPGGYTITVEPTEGGVKVTITHPDGSKGEVELGPTEPLVVDPDGATILASAGGSAGGS [r12_281_TrMRF]             kcal/mol                  1.49
17  SAGGSAGGSAGMGVPPDGATLRFTYPESPSSTRTFTSPEEAAAWIAANLPPEHSVSFSPASAGGSAGGSAGG [r11_983_JUSTAS]             kcal/mol                  0.25
18  SAGGRKITINWNPNSGEIKVKIIWPDGEKEELPIPVPEGHDSPRQFADELKDNAQERFGEPVKIEITSAGGS [r8_166_TrROS]             kcal/mol                -0.223
19  SAGGKPGEKPRIRIQVKVRYPGNGRKQSITIEIVPDAIEQGLSASELADEIARKMGMPVKIEEIEILSAGGS [r16_554_TrROS]             kcal/mol                  1.87
20  SAGGSAGGSAKIWIILKDADEARDRIEELFGPGVRIEPVNIQRWDGKVYVMIEIEIPPNMTSAGGSAGGSAG [r3_87_TrROS]             kcal/mol                   2.1
21  SAGGSAEIEGLEFEIVEVTEVRVLPDGTVEITLRVRLPDGSYLRITITVSPDGTVTIDIELLPADESAGGSA [r15_559_TrROS_Hall]             kcal/mol                  4.51
22  SAGGSAPDWKIVDIEPTDNSITITVEAPPGVRVMIFNPGNGKVQHRPFPPGDTITIPPRMYIMVWVSAGGSA [r15_418_TrROS]             kcal/mol                  2.43
23  SAGGMKIVSVEFDEETGEVYVKIEVPTPEELEALKKLPGEVRIVDKETGEVKVIKVKSIEELLELLKKSAGG [r13_604_TrROS_Hall]             kcal/mol                  1.86
24  SAGGSAGGSAMTPEEIKKLFPNAKMKPFKGNGKTVIVIELPSGEKIEIVFDDGKPRIIVYKGSAGGSAGGSA [r18_13_TrMRF]             kcal/mol                  1.36
25  SAGKIEIVEVTKNYVKIKIKNKKTNKTIEIKIPVKKKKGKKLSKEELEELAKKLAKELYPDMKIEVEKVSAG [r5_293_TrROS_Hall]             kcal/mol                  2.24
26  SAGGSAGGSDKYVVVIRVVNKETKKVTTLVFEGLKTPEELKAAVEALLPPGVVKVEIRVVKLPSAGGSAGGS [r20_29_TrROS_Hall]             kcal/mol                  2.89

* * *

assay: folding stability dG unfold (combined trypsin and chymotrypsin); higher = more stable
Reported folding stability dG unfold by item:
outcome measure: folding stability dG unfold (kcal/mol)

In [3]: df
Out[3]:
                         biopolymer_sequence  comparison_symbol  reported_measurement
 0  SAGGSAGGSAGGAEELAKELAEKLGLEKKKVLIKLPNGKVVEVTIEDLKKLNLKNAEIVPSAGGSAGGSAGG [r7_863_TrROS_Hall]                  =                 0.786
 1  SAGGSAGGSAGGKIKLTVEKTEDGYLRVTAEDEDTKETVVITLPKGTTLEEALKLLKELSAGGSAGGSAGGS [r10_825_TrROS_Hall]                  =                  3.19
 2  SAGGSAGGSAGKKELTFKDKNGKTITVTLEDGEIKEIKIEKPPKPKVVKTEKKYVPKEELSAGGSAGGSAGG [r17_287_TrROS_Hall]                  =                 0.135
 3  SAGGSAGGSATLTLELEIEVDGVRFRVRAELRLDEDGRLHLRVEIEVEPLPPPPPLVAEGEELSAGGSAGGS [r20_30_TrROS_Hall]                  =                  4.05
 4  SAGGSAGGMTAEEVAEWIADEFMENHPNIEIKPVATEDGEVKIDIRHPNSGMTHTFKIPPGQPLSAGGSAGG [r6_446_TrROS]                  <                    -1
 5  SAGGKKHYLVKVKATLTDKNGKKIAEVEFIFHFESPEELEEALKSIPSKYITEVKILSIEEIPEEEFSAGGS [r16_677_TrMRF]                  =                  3.55
 6  SGMPPVSVSSIEPVSVSPDGTSRTFRAPLTTPSGEPVTYTGPVSEILKRVEEEGWGPTASAPGGLVEVRDSA [r9_1078_JUSTAS]                  =                -0.583
 7  SAGGSAGGSAGMEYSIDKASGKILIKIPDEDKTWILYDPKTGEKYIFKQIGGKWYKVEKVSAGGSAGGSAGG [r11_1036_TrMRF]                  =                  1.91
 8  STIRITLPKEELSPELLEALAKAPGLSEEELRDRLTVEEVDGEVVITLSPEVLEELRKRNPELLEALEKASA [r9_160_TrROS_Hall]                  =                  2.59
 9  SAGGSAGGSAEVEIEVDKETKELYIKDSNGKVKKIKVKVVKVEVKKPVVTLPKEELSEEELKSAGGSAGGSA [r18_59_TrROS_Hall]                  =                 0.258
10  SAGGSAGGSAGLPPGDYRLFPFTVTITIPPIKVKDPNGDEHEIDNLEISITIYFFVPAGDSAGGSAGGSAGG [r11_907_TrROS]                  =                  4.03
11  SAGGSAGGSAPDIKIEKIGENTYKITLNFEFTFEDGSKVKVKITFTFTVNFPEDDPLLKELFSAGGSAGGSA [r18_215_TrMRF]                  =                  3.02
12  SAGGSAGGSAGGPTLELEITLPDGFKLRVTFDPEKGLRVELVEPVPAPPPKVEYRSLEDLSAGGSAGGSAGG [r11_188_TrROS_Hall]                  =                  1.37
